Source: paper PMC3873039

- Tested on: KG1a
- Assay method text: Hoechst 33342 nuclear morphological analysis of apoptosis
- Type: cell-based
- Condition label: Homo sapiens, KG-1a, 24 h, read-out: AP50 (50% induction of apoptosis), Hoechst 33342 staining (Hoe)
Can you tell me pEC50 for the items I'm about to list?
Remember the convention: pEC50 equals -log10 of concentration in molar.

Name the recorded pEC50 for O=c1cc(-c2ccc(O)cc2)oc2cc(O)cc(O)c12 [Apigenin] .
3.63

Name the recorded pEC50 for O=c1c(O)c(-c2ccc(O)c(O)c2)oc2cc(O)cc(O)c12 [Quercetin] .
3.90

Name the recorded pEC50 for O=C1c2cccc(O)c2C(=O)c2c(O)cc(CO)cc21 [Aloe - Emodin, Aloe-emodin] .
3.44

Name the recorded pEC50 for C(=C\c1ccccc1)/c1ccccc1 [Trans-Stilbene, Trans-stilbene] .
3.44

###

- System: MOLT-3
- Assay method text: Hoechst 33342 nuclear morphological analysis of apoptosis
- Type: cell-based
- Condition label: Homo sapiens, MOLT-3, 24 h, read-out: AP50 (50% induction of apoptosis), Hoechst 33342 staining (Hoe)
pEC50: −log10 of the molar value.
Values of pEC50 greater than or equal to 4 map to y; values below map to n.

Decide: pEC50 of O=c1c(O)c(-c2ccc(O)c(O)c2)oc2cc(O)cc(O)c12 >= 4?
y

Decide: pEC50 of C(=C\c1ccccc1)/c1ccccc1 [Trans-Stilbene, Trans-stilbene] >= 4?
n

Decide: pEC50 of O=c1cc(-c2ccccc2)oc2cc(O)cc(O)c12 >= 4?
y

Decide: pEC50 of O=C(O)c1cc(O)c2c(c1)C(=O)c1cccc(O)c1C2=O >= 4?
n

Decide: pEC50 of Cc1cc(O)c2c(c1)C(=O)c1cc(O)cc(O)c1C2=O >= 4?
y

Decide: pEC50 of O=C1c2cccc(O)c2C(=O)c2c(O)cc(CO)cc21 >= 4?
n

###

- Test system: myeloid cell lines
- Assay method text: Apoptosis
- Format: cell-based
- Condition label: Homo sapiens, 24 h, read-out: AP50 values (range in myeloid cell lines)
pEC50: −log10 of the molar value.
Property: pEC50

Name the recorded pEC50 for O=c1cc(-c2ccc(O)cc2)oc2cc(O)cc(O)c12 .
3.63 to 4.08

###

- Test system: JURKAT
- Assay method text: Cell cycle analysis, propidium iodide flow cytometry
- Format: cell-based, human
- Condition label: IC50 dose, 24 h, p<0.05
Property: Phase of cell cycle accumulation

Worked examples follow.
[[record]]
molecule = "O=C1c2cccc(O)c2C(=O)c2c(O)cc(CO)cc21"
measured = "S-phase"

[[record]]
molecule = "O=c1c(O)c(-c2ccc(O)c(O)c2)oc2cc(O)cc(O)c12"
measured = "S-phase"

[[record]]
molecule = "C(=C\\c1ccccc1)/c1ccccc1 [Trans-Stilbene, Trans-stilbene]"
measured = "S-phase"

[[record]]
molecule = "O=c1cc(-c2ccc(O)cc2)oc2cc(O)cc(O)c12"
measured = "S-phase"

[[record]]
molecule = "O=C(O)c1cc(O)c2c(c1)C(=O)c1cccc(O)c1C2=O"
measured = "S-phase"


Name the recorded Phase of cell cycle accumulation for O=c1cc(-c2ccccc2)oc2cc(O)cc(O)c12 .
G0/G1 phase

Name the recorded Phase of cell cycle accumulation for Cc1cc(O)c2c(c1)C(=O)c1cc(O)cc(O)c1C2=O .
G0/G1 phase
